Values from paper PMC10241580

assay: In vitro cytotoxicity MTT assay on P388 cell line; assay type: cell-based; settings: mouse, P388 leukaemia cells, mean ± SD (n = 3)
A collection of compounds and their measured IC50
READOUT KIND: IC50 (µg/mL)

• C[C@H]1[C@H](C)CC[C@]2(C(=O)O)CC[C@]3(C)C(=CC[C@@H]4[C@@]5(C)CC[C@H](O)C(C)(C)[C@@H]5CC[C@]43C)[C@H]12 [Compound 4, ursolic acid] = 2.5
• O=c1c2cc(O)c(O)cc2oc2cc(O)cc(O)c12 [Compound 2, norathyriol] = 21.8
